Reported growth values for a set of molecules
System: NCI-H23 lung
Protocol: NCI-60 one-dose screen, 48 h (100 = growth as untreated, 0 = no growth, -100 = all killed)
Condition set: 10 µM unless noted
Compounds without any hit were thinned out: in the full panel of roughly 83,000, 20% have a hit. Active and inactive are the calls of the source. The calls were made as follows: active = growth percent below 10; inactive = the rest.

Example cases with answers are listed next.
CCCCCCCCn1ccc2cc(NC(=O)Cn3cc(CN4CCOCC4)nn3)ccc21; 106% (inactive)
O=[N+]([O-])/C(=C\c1ccco1)c1ccccc1Cl; 92.3% (inactive)
CC(C)CN1CC(C(=O)Nc2ccc3c(c2)-c2ccccc2C3)CC1=O (configuration not stated); 81% [50 µM] (inactive)
c1ccc2cc(Cn3c[n+](Cc4ccc5ccccc5c4)c4ccccc43)ccc2c1; -0.737% (active)

growth recorded for this molecule, O=C(O)c1cccc(N/C=C/C(=O)c2cc3cc(Br)ccc3oc2=O)c1 , is 98.1% (inactive)

Reported growth of O=C(Cn1nnc2ccccc21)N/N=C/c1ccccc1F : 105% (inactive)

For record CCN=C1C=CC(=C(c2ccc(N(C)C)cc2)c2ccc(N(C)C)cc2)c2ccccc21 the listed growth is -5.87% (active)

Record O=C1Nc2ccccc2C2c3cccn3-c3ccccc3N12 (configuration not stated) , field growth: 81% (inactive)

So, CCN1CCN(CC(=O)Nc2nc3ccc(NCc4ccc(Br)cc4)cc3s2)CC1 ? Its growth was 70.4% (inactive)

Recorded growth (molecule COc1ccc2cc(-c3ccc(-c4ccc(C(=N)N)s4)s3)ccc2c1 ): 0.368% (active)

growth measured on COc1ccc(C(C)=O)cc1S(N)(=O)=O = 98.2% (inactive)

Entry COc1ccc(C(O)c2cc3c(N)c(C(=O)Nc4cccc(Cl)c4)sc3nc2C)cc1 (configuration not stated) , growth reported as 37.8% (inactive)

growth for Cc1ccc(-c2nc(C(Cl)Cl)nc3cc(C)nn23)cc1 is -18.4% (active)

The molecule listed as CC[C@H](CC[C@@H](C)[C@H]1CC[C@H]2[C@@H]3CC[C@@H]4CC(=O)/C(=C\c5ccncc5)C[C@]4(C)[C@H]3CC[C@]12C)C(C)C has a reported growth of 99.4% (inactive)

// recorded growth for CCCCCCCCn1ccc2cc(NC(=O)Cn3cc(CN4CCCCCC4)nn3)ccc21 : 52.3% (inactive)

Kindly note the recorded growth for N#Cc1c(-c2ccccc2)cc(-c2ccccc2)n(CCCC(=O)NO)c1=O , which is 31.2% (inactive)

Given item CC1(C)CCC(S(=O)(=O)c2ccc3c(c2)/C(=N\O)c2cc(S(=O)(=O)N4CCN(c5ccc(F)cc5O)CC4)ccc2-3)CC1 , the value recorded as its growth is -76.8% (active)
